I'd be grateful if you could share measured pKd for these entries.
- Tested on: human B7H3 ECD-His (human) (UniProt Q5ZPR3)
- Experiment notes: ForteBio BLI
Give bare numbers, as −log10 of the molar value.

[
  {
    "Binder": "huM30 (antibody, from another filing, V domains shown) VH: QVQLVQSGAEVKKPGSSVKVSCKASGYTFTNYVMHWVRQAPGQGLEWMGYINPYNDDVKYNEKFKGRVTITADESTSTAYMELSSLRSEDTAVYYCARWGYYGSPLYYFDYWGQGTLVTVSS VL: EIVLTQSPATLSLSPGERATLSCRASSRLIYMHWYQQKPGQAPRPLIYATSNLASGIPARFSGSGSGTDFTLTISSLEPEDFAVYYCQQWNSNPPTFGQGTKVEIK",
    "pKd": 9.56
  }
]

Lab note: each binder below needs its pKd filled in.
1. humanized 6F7 with light chain variable region LV2 (antibody, V domains shown) VH: EVQLVESGGGLVQPGGSLRLSCAASGFTFTDYYMSWVRQAPGKGLEWVAFIRNKANGYTTEYSASVKGRFTISRDDSKNSLYLQMNSLRAEDTAVYYCARDSHYRPFAYWGQGTLVTVSS VL: DIVMTQSPDSLAVSLGERATINCKSSQSLLNSGNQNNYLTWYQQKPGQPPKLLIYLASTRDSGVPDRFSGSGSGTDFTLTISSLQAEDVAVYYCQNDYTYPLTFGGGTKVEIKR
2. humanized 6F7 with light chain variable region LV1 (antibody, V domains shown) VH: EVQLVESGGGLVQPGGSLRLSCAASGFTFTDYYMSWVRQAPGKGLEWVAFIRNKANGYTTEYSASVKGRFTISRDDSKNSLYLQMNSLRAEDTAVYYCARDSHYRPFAYWGQGTLVTVSS VL: DIVMTQSPLSLPVTPGEPASISCKSSQSLLNSGNQNNYLTWYLQKPGQSPQLLIYLASTRDSGVPDRFSGSGSGTDFTLKISRVEAEDVGVYYCQNDYTYPLTFGGGTKVEIKR
3. humanized 26B6 (antibody, V domains shown) VH: EVQLVQSGAEVKKPGASVKVSCKASGYTFTEYTMHWVRQAPGQGLEWIGGINPNTGGTTYNQKFNGRVTMTRDTSISTAYMELSSLRSEDTAVYYCTRPYRDDGGFHWYFDVWGQGTLVTVSS VL: EIVLTQSPATLSLSPGERATLSCSASSSVSYMQWYQQKPGLAPRLLIYDTSKLTSGIPDRFSGSGSGTDFTLTISRLEPEDFAVYYCQQWSSNPLTFGGGTKVEIKR

7.85
7.43
9.12
